Species on record: Rattus norvegicus
Assay: Effect on arterial blood pressure in Wistar rat in pressor test
Type: functional, organism-based
Active and inactive are the calls of the source. The rule behind the calls is not given here.

{"cpd.smiles": "NC(=O)CC[C@@H]1NC(=O)[C@H](Cc2ccccc2)NC(=O)C2(Cc3ccccc3C2)NC(=O)CCSSC[C@@H](C(=O)N2CCC[C@H]2C(=O)N[C@@H](CCCN=C(N)N)C(=O)NCC(N)=O)NC(=O)[C@H](CC(N)=O)NC1=O", "Activity": "5.3 IU/mg"}
{"cpd.smiles": "NC(=O)CC[C@@H]1NC(=O)C2(Cc3ccccc3C2)NC(=O)[C@H](Cc2ccc(O)cc2)NC(=O)[C@H](N)CSSC[C@H](C(=O)N2CCC[C@H]2C(=O)N[C@H](CCCN=C(N)N)C(=O)NCC(N)=O)NC(=O)[C@H](CC(N)=O)NC1=O", "Activity": "inactive"}
{"cpd.smiles": "NC(=O)CC[C@@H]1NC(=O)C2(Cc3ccccc3C2)NC(=O)[C@H](Cc2ccc(O)cc2)NC(=O)CCSSC[C@H](C(=O)N2CCC[C@H]2C(=O)N[C@@H](CCCN=C(N)N)C(=O)NCC(N)=O)NC(=O)[C@H](CC(N)=O)NC1=O", "Activity": "inactive"}
{"cpd.smiles": "NC(=O)CC[C@@H]1NC(=O)[C@H](Cc2ccccc2)NC(=O)C2(Cc3ccccc3C2)NC(=O)[C@@H](N)CSSC[C@@H](C(=O)N2CCC[C@H]2C(=O)N[C@H](CCCN=C(N)N)C(=O)NCC(N)=O)NC(=O)[C@H](CC(N)=O)NC1=O", "Activity": "0 IU/mg"}
